- System: UO-31 renal
- TEST DETAILS: NCI tumour cell line growth inhibition, 48 h
Entries annotated with measured GI50
PROPERTY: GI50

1) O=C(CCCN1CC=C(n2c(=O)[nH]c3ccccc32)CC1)c1ccc(F)cc1 | 27.5 µM
2) NC(=O)C(=CNc1nc(-c2ccc(Cl)c(Cl)c2)cs1)C(N)=O | 12.1 µM
3) CC(=O)Oc1ccccc1C(=O)N=C1[Se]CCCN1C(=O)c1ccccc1OC(C)=O | 1.33 µM
4) CC(=O)c1c(CBr)n([O-])c2ccccc2[n+]1=O | 5.51 µM
5) CCN1C(=O)N(CC)C2C1NC(=S)N2/N=C/C=C/c1cccs1 (stereo not given) | 0.923 µM
6) Cc1n(Cc2ccc3ccccc3c2)cc[n+]1Cc1ccc2ccccc2c1 | 9.26 µM
7) O=C(O)c1cc(O)c2c(c1)C(C1c3cc(C(=O)O)cc(O)c3C(=O)c3c(OC4OC(CO)C(O)C(O)C4O)cccc31)c1cccc(OC3OC(CO)C(O)C(O)C3O)c1C2=O (stereo not given) | > 100 µM
8) COc1ccc(/C=c2/sc3n(c2=O)C(c2ccc(OC)c(OC)c2)C2=C(N=3)c3cc(F)ccc3OC2)cc1 (stereo not given) | 27.6 µM
9) Nc1c(C(=O)N/N=C/c2ccc(-c3ccc(Cl)cc3)o2)cnn1-c1ccnc2c(C(F)(F)F)cccc12 | > 100 µM
10) O=C1c2ccn(CCCCNC(CO)(CO)CO)c2C(=O)c2c1c(O)c1ccccc1c2O | 23.7 µM

---

- System: NCI-H23 lung
- TEST DETAILS: NCI tumour cell line growth inhibition, 48 h; in the data active means GI50 below about 0.43 µM; inactive means the rest
Labels: YES = active, NO = inactive

1. CC(=O)O[C@@H]1C[C@]2(C(C)C)O[C@@]1(C)[C@@H]1CCC(C)=C1[C@@H]2OC(=O)/C=C/c1ccccc1 | NO
2. NC(=O)C(=CNc1nc(-c2ccc(Cl)c(Cl)c2)cs1)C(N)=O | NO
3. CCCCCc1c(C)[nH]c(/C=C2\N=C(c3ccc[nH]3)C=C2CC)c1C | YES
4. Cc1ccc(Nc2nc(N)c(C(=O)c3ccc(C#N)cc3)s2)cc1 | NO
5. CN(C)c1ccc2nc3ccc(=O)cc-3sc2c1 | NO
6. CC(=O)Oc1ccccc1C(=O)N=C1[Se]CCCN1C(=O)c1ccccc1OC(C)=O | NO
7. Cc1sc2nc(NCCc3c[nH]c4ccc(Cl)cc34)[nH]c(=O)c2c1C | NO
8. NC1CCCC[C@H]1N.N[C@@H]1CCCC[C@@H]1N.O=C(P(=O)([O-])[O-])P(=O)([O-])[O-].[Pt+4].[Pt+4] | NO
9. Nc1nc(Br)nc2c1ncn2C1CC(O)C(CO)O1 (stereo unspecified) | NO
10. CC(=O)c1c(CBr)n([O-])c2ccccc2[n+]1=O | NO
11. COc1ccc(/C=c2/sc3n(c2=O)C(c2ccc(OC)c(OC)c2)C2=C(N=3)c3cc(F)ccc3OC2)cc1 (stereo unspecified) | NO
12. Cc1[nH]n(-c2cccc(Cl)c2)c(=O)c1/C=C1\C=Nc2ccc(Br)cc21 | NO
13. CCN(CC)CC(C)(C)C(=O)/C=C/c1ccc(Cl)c(Cl)c1 | NO
14. O=C(Nc1cccc(Cl)c1Cl)c1cccc(NC2=C(Cl)C(=O)N(Cc3ccccc3)C2=O)c1 | NO
15. Nc1nc(Nc2ccccc2)c2ncn(Cc3cc4c(cc3Br)OCO4)c2n1 | YES
16. CN1CCc2c(Sc3ccc(C(=O)NO)cc3)c3ccccc3n2C1 | NO

---

- Tested on: SF-268 CNS
- TEST DETAILS: NCI tumour cell line growth inhibition, 48 h
Reported TGI values follow for various molecules
PROPERTY: TGI

1. CC(=O)c1csc2c1C(=O)c1scc(C(C)=O)c1C2=O | 3.44 µM
2. CCC1OC2C(CC=C(C)C)=C3OC(C)(O)C(C)(CC)C(OC(=O)c4ccccc4)C3=C3OC(=O)C=C1C32 (centres undefined) | > 100 µM
3. COc1cc2c(cc1OCc1ccccc1)CNCC2 | > 100 µM
4. CCC1c2[nH]c3ccccc3c2C[C@H]2C(=O)NC(COC(C)(C)C)C(=O)N12 (some centres undefined) | > 100 µM
5. NC(CCC(=O)NC(CSC(=O)N(O)c1ccc(Br)cc1)C(=O)NCC(=O)O)C(=O)O (centres undefined) | > 100 µM
6. Fc1ccc(Nc2cc(-n3nnc4ccccc43)nc3ccccc23)cc1 | > 66.3 µM
7. COc1ccc(CNc2c3ccccc3nc3ccccc23)cc1OC | 13 µM
8. COc1ccc2c(c1C)C(=O)C(O)(CC=C(C)C)O2 (centres undefined) | > 100 µM
9. CSC1=C(SC)SC(=C2SC3=C(SC(=C4SCCS4)S3)S2)S1 | > 100 µM
10. COc1cc2c(cc1OC)C(O)[C@H](Br)C(C)(C)O2 (some centres undefined) | > 100 µM
11. O=C(CSc1nnc(-c2ccccc2NC(=O)C(F)(F)F)c(=O)[nH]1)NC(=O)Nc1ccccc1 | > 100 µM
12. COC(COC(=O)N1CCN(C=O)CC1)C1=C(N2CC2)C(=O)C(C)=C(N2CC2)C1=O (centres undefined) | 6.45 µM
13. Clc1ccc(-c2c(C3=NCCN3)nnn2-c2ccc(Cl)cc2)cc1 | > 100 µM
14. O=C1CSC(Cc2nc3ccccc3[nH]2)=N1 | > 31.6 µM
15. Cc1cn2c(=O)c3ccccc3nc2s1 | > 100 µM
16. CCOC(=O)CC1c2ccc(O)cc2OC(=O)C1c1ccc([N+](=O)[O-])cc1 (centres undefined) | > 100 µM
17. O=C1/C(=C\c2cccn2Cc2ccccc2)c2ccccc2N1c1c(Cl)cccc1Cl | > 100 µM
18. CC(=O)N(C(=O)CC(=O)N/N=C\c1ccc(Br)c(N(CCC#N)CCC#N)c1)c1ccc(Cl)cc1 | > 100 µM
19. CC(=O)Oc1ccccc1C(=O)N=C1[Se]CCN1C(=O)c1ccccc1OC(C)=O | 1.79 µM
20. COC(=O)C12C3C4C5(C(=O)OC)C(C1C35C(=O)N(C(C)C)C(C)C)C42C(=O)N(C(C)C)C(C)C (centres undefined) | > 50 µM
21. O=C(Nc1cccc(Cl)c1Cl)c1cccc(NC2=C(Cl)C(=O)N(Cc3ccccc3)C2=O)c1 | > 100 µM
22. N#CC(C(=O)/C(=N/Nc1nc(=S)[nH]n1N)C(C#N)c1ccccc1)c1ccccc1 (centres undefined) | > 100 µM
23. CCOC(=O)c1nc2c(Cl)c3ncccc3cc2[nH]c1=O | > 100 µM
24. CC(C)(C)C(=O)/C=C/c1ccc(Oc2ccccc2)cc1 | 62.1 µM
25. Cc1cccc(NC(=O)/C=C/c2ccc(N(CCC#N)CCC#N)cc2C)c1 | > 100 µM
26. COc1ccc(/C=c2/sc3n(c2=O)C(c2ccc(OC)c(OC)c2)C2=C(N=3)c3cc(F)ccc3OC2)cc1 (centres undefined) | > 100 µM
27. COC(CN(C(=O)c1ccccc1)C1CCC2(SCCS2)c2[nH]c3ccccc3c21)OC (centres undefined) | > 100 µM
28. Cc1cn2c(/C=C3/C(=O)Nc4ccccc43)c(-c3ccc(Cl)cc3)nc2s1 | 24.4 µM
29. CC1=NC(=Cc2ccc(O)cc2)C(=O)N1n1c(-c2ccccc2)nc2ccccc2c1=O | > 100 µM

---

- Test system: HOP-92 NSCLC
- TEST DETAILS: NCI tumour cell line growth inhibition, 48 h; in the data active means GI50 below about 0.43 µM; inactive means the rest
Possible outcomes: yes for active, no for inactive

1. COc1ccc(-c2cc(-c3cccn3C)c(C#N)c(N)n2)cc1OC | no
2. Cc1c[n+](Cc2ccc3ccccc3c2)cn1Cc1ccc2ccccc2c1 | no
3. COc1cc(/C=C2\C(=O)Nc3ccc(F)cc32)cc(OC)c1OC | no
4. O=c1[nH]c2cc(Cl)ccc2n1C1CCN(CCCC(c2ccc(F)cc2)c2ccc(F)cc2)CC1 | no
5. CCN(CC)CCNCC(=O)Oc1ccc(/C=C/C(=O)CC(=O)/C=C/c2ccc(OC(=O)CNCCN(CC)CC)c(OC)c2)cc1OC | no
6. OCCCCC#Cc1ccccc1C#Cc1cccc(O)c1 | no
7. Cc1ccc(N(CSc2ccc(Cl)cc2)CSc2ccc(Cl)cc2)cc1 | no
8. COC(=O)[C@@H](NC(=O)[C@@H](OC)[C@@H]1Cc2cc3cc(OC4CC(OC5CC(O)C(O)C(C)O5)C(O)C(C)O4)c(C)c(O)c3c(O)c2C(=O)[C@H]1OC1CC(OC2CC(OC3CC(C)(O)C(O)C(C)O3)C(O)C(C)O2)C(O)C(C)O1)C(C)C (stereo partly drawn) | yes
9. CN1CCc2c(Sc3ccc(C(=O)NO)cc3)c3ccccc3n2C1 | no
10. CC(=O)c1c(CBr)n([O-])c2ccccc2[n+]1=O | no
11. c1ccc2c3ccn4cc5c(cc4c-3nc2c1)CCCC5 | no
12. NC(=O)C(=CNc1nc(-c2ccc(Cl)c(Cl)c2)cs1)C(N)=O | no
13. Nc1c(C(=O)N/N=C/c2ccc(-c3ccc(Cl)cc3)o2)cnn1-c1ccnc2c(C(F)(F)F)cccc12 | no
